Attribution: patent US20110081661A1

TARGET_OR_TEST_SYSTEM: EP1 Receptor (Homo sapiens)
Construct: host or cells: HEK293T
Sequence (P34995 1-402): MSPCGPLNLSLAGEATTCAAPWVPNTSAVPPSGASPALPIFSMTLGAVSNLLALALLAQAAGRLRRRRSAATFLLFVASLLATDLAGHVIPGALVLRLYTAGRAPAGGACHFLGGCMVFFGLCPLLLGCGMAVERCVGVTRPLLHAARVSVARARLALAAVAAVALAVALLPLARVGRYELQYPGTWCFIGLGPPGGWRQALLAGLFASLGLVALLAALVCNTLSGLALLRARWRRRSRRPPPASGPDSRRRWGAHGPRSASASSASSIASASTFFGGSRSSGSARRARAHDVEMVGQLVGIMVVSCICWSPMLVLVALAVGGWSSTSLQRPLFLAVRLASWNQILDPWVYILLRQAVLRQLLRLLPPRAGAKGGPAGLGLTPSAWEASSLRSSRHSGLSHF
Type: cell-based
MEASUREMENT_CONDITIONS: read-out: EP1 Receptor EC50 for PGE2; Luminescent Assay, Thaw/Assay
MEASURED_ATTRIBUTE: pEC50
Would you please state pEC50, meaning minus log10 of the concentration in mol/L, as a bare number?

Field pEC50 (entry CCCCC[C@H](O)/C=C/[C@H]1[C@H](O)CC(=O)[C@@H]1C/C=C\CCCC(=O)O [PGE2, prostaglandin E2] ) reads 8.22
